experiment: apparent activators from fluorescence artefacts, no enzyme – biochemical, fluorescence intensity, high throughput, artefact control for kallikrein-7 zymogen activator project (AID 686952);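 note: value is the 4 h activation minus the activation read at time zero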
runParameters: EDANS-DABCYL substrate fluorescence interference, 4 h, at 7 µM, hits give high values, solvent 0%, active enzyme control 100%
In all, about 3,200 compounds went through this assay and about 2,600 (81%) were called active. The set was probably picked from earlier hits. The list is a sample of the results.
Parameter threshold = 60%. Response is met when activation meets or exceeds it, else not met.

Given CC1CCCN(C(=O)c2cc(-c3ccco3)nc3ccccc23)C1 (centres undefined) , state whether its activation is at least 60%.
not met

Given Nc1ccc2nn(-c3ccc(Cl)cc3)nc2c1 , state whether its activation is at least 60%.
met

Given O=C(O)c1ccc2c3c(cccc13)C(=O)N(OS(=O)(=O)c1ccccc1)C2=O , state whether its activation is at least 60%.
met

Given O=c1oc2cc(O)ccc2cc1-c1ccc(F)cc1 , state whether its activation is at least 60%.
met

Given CCN(CC)CCCC(C)n1c2nc(=O)[nH]c(=O)c-2nc2cc(Cl)ccc21 (centres undefined) , state whether its activation is at least 60%.
met

Given O=C(O)c1cccnc1Sc1ncnc2sc3c(c12)CCC3 , state whether its activation is at least 60%.
not met

Given CC1(C)Oc2ccc3ccc(=O)oc3c2/C(=N/O)C1=O , state whether its activation is at least 60%.
met

Given COc1cccc(NC(=O)CN(C)C(=O)/C=C/c2cc(OC)ccc2OC)c1 , state whether its activation is at least 60%.
not met

Given CCOc1c2ccc(C(=O)NCc3ccc4c(c3)OCO4)cc2nn1C , state whether its activation is at least 60%.
not met
